- Test system: Proteus mirabilis
- measurement.notes: Antimicrobial activity against Proteus mirabilis ATCC 12453 after 18 hrs by broth microdilution method
- Type: functional
- conditions.used: ATCC 12453, 18 h
reported.endpoint: MIC (µM)
Write the number in µM without appending the unit.

Illustrative cases are given below, each with its answer.
{"input.smiles": "O=C(O)c1cn(C2CC2)c2cc(N3CCN(Cn4nc(-c5cccc(O)c5)n(Cc5ccc(F)cc5)c4=S)CC3)c(F)cc2c1=O", "MIC [µM]": 0.006}
{"input.smiles": "O=C(O)c1cn(C2CC2)c2cc(N3CCN(Cn4nc(-c5ccccc5O)n(Cc5ccc(F)cc5)c4=S)CC3)c(F)cc2c1=O", "MIC [µM]": 0.023}
{"input.smiles": "COc1ccc(-n2c(-c3cccc(O)c3)nn(CN3CCN(c4cc5c(cc4F)c(=O)c(C(=O)O)cn5C4CC4)CC3)c2=S)cc1", "MIC [µM]": 0.047}

--- query ---
IN: Suppose we examine the compound `O=C(O)c1cn(C2CC2)c2cc(N3CCN(Cn4nc(-c5ccc(O)cc5)n(Cc5ccccc5)c4=S)CC3)c(F)cc2c1=O` ; what MIC value has been reported?
OUT: 0.024

---

- System: HEK293
- measurement.notes: Cytotoxicity against HEK293 cells after 72 hrs by MTT assay
- Type: cell-based
- conditions.used: Homo sapiens, HEK293, 48 h; in the assay text read “48 hrs” for “72 hrs”
reported.endpoint: pEC50
pEC50 is a log-scale quantity: -log10 of the concentration expressed in molar.

Illustrative cases are given below, each with its answer.
{"input.smiles": "O=C(O)c1cn(C2CC2)c2cc(N3CCN(Cn4nc(-c5cccc(O)c5)n(Cc5ccc(F)cc5)c4=S)CC3)c(F)cc2c1=O", "recorded.number": 4.16}
{"input.smiles": "COc1ccc(Cn2c(-c3ccccc3O)nn(CN3CCN(c4cc5c(cc4F)c(=O)c(C(=O)O)cn5C4CC4)CC3)c2=S)cc1", "recorded.number": 4.10}
{"input.smiles": "COc1ccc(Cn2c(-c3cccc(O)c3)nn(CN3CCN(c4cc5c(cc4F)c(=O)c(C(=O)O)cn5C4CC4)CC3)c2=S)cc1", "recorded.number": 4.20}
{"input.smiles": "O=C(O)c1cn(C2CC2)c2cc(N3CCN(Cn4nc(-c5ccccc5O)n(Cc5ccccc5)c4=S)CC3)c(F)cc2c1=O", "recorded.number": 4.16}
{"input.smiles": "O=C(O)c1cn(C2CC2)c2cc(N3CCN(Cn4nc(-c5cccc(O)c5)n(-c5ccccc5)c4=S)CC3)c(F)cc2c1=O", "recorded.number": 3.86}

IN: Suppose we examine the compound `O=C(O)c1cn(C2CC2)c2cc(N3CCN(Cn4nc(-c5ccc(O)cc5)n(-c5ccc(F)cc5)c4=S)CC3)c(F)cc2c1=O` ; what pEC50 value has been reported?
OUT: 3.97

IN: Suppose we examine the compound `COc1ccc(-n2c(-c3ccc(O)cc3)nn(CN3CCN(c4cc5c(cc4F)c(=O)c(C(=O)O)cn5C4CC4)CC3)c2=S)cc1` ; what pEC50 value has been reported?
OUT: 3.98

IN: Suppose we examine the compound `COc1ccc(-n2c(-c3cccc(O)c3)nn(CN3CCN(c4cc5c(cc4F)c(=O)c(C(=O)O)cn5C4CC4)CC3)c2=S)cc1` ; what pEC50 value has been reported?
OUT: 3.94
